The origin of these recorded values is the supplement of paper PMC10702517.

- Measurement Description: chemical recovery from spiked human plasma; higher = better extraction;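 further: plasma spiked with over 400 chemicals, quantified by LC-HRMS and GC-HRMS via internal standard calibration against matrix-matched unspiked plasma extracts plus spike mix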
- Condition Summary: pooled human plasma; extraction method: SPE only (HLB 96-well), PES comparison experiment
Quick rule for you: chemical recovery at 40% or higher means T, lower means F.

>  <Compound>
CCOC(=O)[C@H](CCc1ccccc1)N[C@@H](C)C(=O)N1CCC[C@H]1C(=O)O

>  <Category Label>
F

$$$$
>  <Compound>
O=C1Cc2cc(CCN3CCN(c4nsc5ccccc45)CC3)c(Cl)cc2N1

>  <Category Label>
T

$$$$
>  <Compound>
N#Cc1nn(-c2c(Cl)cc(C(F)(F)F)cc2Cl)c(N)c1[S+]([O-])C(F)(F)F (stereo not given)

>  <Category Label>
T

$$$$
>  <Compound>
CN(C)C(=O)Nc1ccc(Cl)c(Cl)c1

>  <Category Label>
T

$$$$
>  <Compound>
CC(C)N(C(=O)CCl)c1ccccc1

>  <Category Label>
T

$$$$

* * *

- Measurement Description: chemical recovery from spiked human plasma; higher = better extraction
- Condition Summary: pooled human plasma; extraction method: SPE only (HLB 96-well)
chemical recovery for assorted compounds

>  <Compound>
Cc1cccc(C)c1N(Cn1cccn1)C(=O)CS(=O)(=O)O

>  <Unit Text>
%

>  <chemical recovery>
97.9

$$$$
>  <Compound>
O=C(O)C(F)(F)C(F)(F)C(F)(F)OC(F)(F)F

>  <Unit Text>
%

>  <chemical recovery>
36.7

$$$$
>  <Compound>
OC(Cn1cncn1)(c1ccc(F)cc1)c1ccccc1F (centres undefined)

>  <Unit Text>
%

>  <chemical recovery>
41.9

$$$$
>  <Compound>
Oc1cc(Cl)ccc1Oc1ccc(Cl)cc1

>  <Unit Text>
%

>  <chemical recovery>
32.1

$$$$
>  <Compound>
CN(C)C(=O)Nc1ccc(Oc2ccc(Cl)cc2)cc1

>  <Unit Text>
%

>  <chemical recovery>
36.4

$$$$
>  <Compound>
CCCC[N+]1(C)[C@H]2CC(OC(=O)C(CO)c3ccccc3)C[C@H]1[C@H]1O[C@H]12 (some centres undefined)

>  <Unit Text>
%

>  <chemical recovery>
38.4

$$$$
>  <Compound>
Oc1ccc2c(c1)[C@@]13CCCC[C@@]1(O)[C@@H](C2)N(CC1CCC1)CC3

>  <Unit Text>
%

>  <chemical recovery>
34.7

$$$$
>  <Compound>
CCOC(=O)c1cn2nc(OP(=S)(OCC)OCC)cc2nc1C

>  <Unit Text>
%

>  <chemical recovery>
43

$$$$
>  <Compound>
CC(Cl)CN(C)C (centres undefined)

>  <Unit Text>
%

>  <chemical recovery>
1.1

$$$$
>  <Compound>
CCNc1nc(NCC)[nH]c(=O)n1 [Simazine-2-Hydroxy]

>  <Unit Text>
%

>  <chemical recovery>
14.8

$$$$
>  <Compound>
CCc1ccc(CCOc2ccc(CC3SC(=O)NC3=O)cc2)nc1 (centres undefined)

>  <Unit Text>
%

>  <chemical recovery>
48.6

$$$$
>  <Compound>
Cc1cc(N)c2ccccc2n1

>  <Unit Text>
%

>  <chemical recovery>
32.7

$$$$
>  <Compound>
CCCCCCS(=O)(=O)O

>  <Unit Text>
%

>  <chemical recovery>
30.6

$$$$
>  <Compound>
O=C1NCCN1Cc1ccc(Cl)nc1

>  <Unit Text>
%

>  <chemical recovery>
43.2

$$$$
>  <Compound>
Cc1cc(=O)nc(C(C)C)[nH]1

>  <Unit Text>
%

>  <chemical recovery>
34.6

$$$$
>  <Compound>
Cc1ccc(N)cc1Cl

>  <Unit Text>
%

>  <chemical recovery>
45.3

$$$$
>  <Compound>
Clc1ccc2[nH]nnc2c1

>  <Unit Text>
%

>  <chemical recovery>
41.8

$$$$
>  <Compound>
CC[C@H]1OC(=O)[C@H](C)[C@@H](O[C@H]2C[C@@](C)(OC)[C@@H](O)[C@H](C)O2)[C@H](C)[C@@H](O[C@@H]2O[C@H](C)C[C@H](N(C)C)[C@H]2O)[C@](C)(OC)C[C@@H](C)C(=O)[C@H](C)[C@@H](O)[C@]1(C)O

>  <Unit Text>
%

>  <chemical recovery>
45.1

$$$$
>  <Compound>
N#Cc1cc(Cl)c(O)c(Cl)c1

>  <Unit Text>
%

>  <chemical recovery>
46.1

$$$$
